Tested on: TTR mRNA
Experiment: TTR mRNA knockdown in primary human hepatocytes by quantitative PCR (Tables 34, 35)
Assay type: cell-based
Conditions: TTR mRNA in PHH; LNP dose 300 ng mRNA cargo; gRNA:mRNA 1:2; 96 hours after treatment; biological triplicates; vs untreated control
Description: In one experiment, PHH were cultured and treated with LNPs comprising Cas9 mRNA (SEQ ID NO:1) and a gRNA of interest (See FIG. 29, Table 34), as described in Example 4. The LNPs were prepared using the cross-flow procedure described above and purified and concentrated using PD-10 columns and Amicon centrifugal filter units, respectively. […] In a separate experiment, TTR mRNA knockdown was evaluated following treatment with LNPs comprising G000480, G000486, and G000502. […]
Strand notation (5' to 3'): a small letter for the sugar, then the base; units joined by * are phosphorothioate-linked, units joined directly phosphodiester-linked; [ ] holds rarer units or linkages, { } end groups; capitals alone tell only the bases. m = 2'-O-methyl; r = 2'-OH (RNA)
endpoint: Avg % Knockdown (%)
Answers are plain numbers, in %.

Exercise: For the molecule G000567: TTR sgRNA modified sequence, Human, SEQ ID No. 109; guide sequence of CR003352 (nucleic acid) guide: mG*mA*mA*rArGrGrCrUrGrCrUrGrArUrGrArCrArCrCrGrUrUrUrUrArGrAmGmCmUmAmGmAmAmAmUmAmGmCrArArGrUrUrArArArArUrArArGrGrCrUrArGrUrCrCrGrUrUrArUrCrAmAmCmUmUmGmAmAmAmAmAmGmUmGmGmCmAmCmCmGmAmGmUmCmGmGmUmGmCmU*mU*mU*mU , what Avg % Knockdown is on record?
Key: 90.89

***
Exercise: For the molecule G000483: TTR sgRNA modified sequence, Human, SEQ ID No. 90; guide sequence of CR005298 (nucleic acid) guide: mU*mC*mC*rArCrUrCrArUrUrCrUrUrGrGrCrArGrGrArGrUrUrUrUrArGrAmGmCmUmAmGmAmAmAmUmAmGmCrArArGrUrUrArArArArUrArArGrGrCrUrArGrUrCrCrGrUrUrArUrCrAmAmCmUmUmGmAmAmAmAmAmGmUmGmGmCmAmCmCmGmAmGmUmCmGmGmUmGmCmU*mU*mU*mU , what Avg % Knockdown is on record?
Key: 68.78
